Ref: paper PMC4721062

Test system: juvenile S. japonicum in mice
Experiment: Treatment of infected mice at juvenile worm stage
Type: in vivo, Schistosoma japonicum (ICR mice)
Details: 10 mg/kg i.p. daily for 5 days from day 7 post-infection, sacrificed day 42
# Number of worms (Mean ± SD) listing for each entry below

Check out these entries, answers already filled in.
C[C@@H]1CC[C@H]2[C@@H](C)C(=O)O[C@@H]3O[C@@]4(C)CC[C@@H]1[C@]32OO4 [AS, artemisinin, reference compound]
2.3 ± 1.0
Cc1ccc(-c2no[n+]([O-])c2CO)cc1
1.8 ± 1.5 (P > 0.05^**)
C#CCOc1ccc(-c2no[n+]([O-])c2C#N)cc1
3.0 ± 0.9 (P < 0.05^**)
N#Cc1c(-c2ccc(Br)cc2)no[n+]1[O-]
1.4 ± 0.8 (P > 0.05^**)
N#Cc1c(-c2ccc(OC/C=C/CBr)cc2)no[n+]1[O-]
1.0 ± 0.5 (P > 0.05^**)
COc1ccc(-c2no[n+]([O-])c2CO)cc1
1.3 ± 0.8 (P > 0.05^**)

Now take the following compound into account.
The compound `N#Cc1c(-c2ccc(OCCCBr)cc2)no[n+]1[O-]` showed Number of worms (Mean ± SD) equal to 1.7 ± 0.7 (P > 0.05^**)

###

# IC50 listing for each entry below
Biological target: recombinant SjTGR (Schistosoma japonicum, UniProt B5THG7)
Sequence (B5THG7 1-596): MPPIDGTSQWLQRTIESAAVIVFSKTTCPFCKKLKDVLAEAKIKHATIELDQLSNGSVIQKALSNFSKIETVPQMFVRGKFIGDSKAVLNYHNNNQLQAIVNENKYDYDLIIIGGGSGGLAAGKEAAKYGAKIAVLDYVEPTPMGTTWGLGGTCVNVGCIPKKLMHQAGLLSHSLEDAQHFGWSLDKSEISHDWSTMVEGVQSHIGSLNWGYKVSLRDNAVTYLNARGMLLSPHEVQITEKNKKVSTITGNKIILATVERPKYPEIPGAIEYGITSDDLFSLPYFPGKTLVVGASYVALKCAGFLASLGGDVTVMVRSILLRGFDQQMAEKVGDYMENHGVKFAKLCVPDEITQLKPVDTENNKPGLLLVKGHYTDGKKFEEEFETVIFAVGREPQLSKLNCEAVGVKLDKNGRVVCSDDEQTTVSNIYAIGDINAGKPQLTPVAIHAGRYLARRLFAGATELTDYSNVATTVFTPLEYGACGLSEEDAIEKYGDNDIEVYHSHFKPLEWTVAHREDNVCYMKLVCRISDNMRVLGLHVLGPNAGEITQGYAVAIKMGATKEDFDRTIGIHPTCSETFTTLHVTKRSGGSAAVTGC
Experiment: Inhibition of TrxR activity of recombinant SjTGR (DTNB assay)
Type: biochemical
Conditions: IC50 of SjTGR, 50 nM SjTGR, 1 mM NADPH, 15 min preincubation, DTNB reduction
Protocol: The purified recombinant SjTGR proteins were produced according to the method described by Song et al.. The inhibition of TrxR activity by the recombinant SjTGR was performed as reported by Rai et al.. […] The increase of absorbance at 412 nm was monitored during the first 2 min. […] 50 nM SjTGR and 1 mM NADPH were incubated with different concentrations of oxadiazole-2-oxides (2, 4, 6, 10, 20 μM) for 15 min at room temperature. […] The increase in absorbance at 412 nm was monitored during the first 2 min. […]
The reply should contain only the number, in µM.

Check out these entries, answers already filled in.
COc1ccc(-c2no[n+]([O-])c2C#N)cc1
12.2
Cc1ccc(-c2no[n+]([O-])c2C#N)cc1
14.2
N#Cc1c(-c2ccc(O)cc2)no[n+]1[O-]
37.4

Test item `N#Cc1c(-c2ccc(Br)cc2)no[n+]1[O-]` ; recombinant SjTGR (Schistosoma japonicum, UniProt B5THG7); reported IC50 was 3.7

###

Biological target: recombinant SjTGR (Schistosoma japonicum, UniProt B5THG7)
Assay: Inhibition of TrxR activity of recombinant SjTGR (DTNB assay)
Format: biochemical
Settings: 50 nM SjTGR, 1 mM NADPH, 15 min preincubation, DTNB reduction; read-out: IC50 of SjTGR
property_label: pIC50
Note on units: pIC50 is unitless, being -log10 of a concentration expressed in mol/L.

The compound C#CCOc1ccc(-c2no[n+]([O-])c2C#N)cc1 [Compound 20] showed pIC50 equal to 5.48

The compound [O-][n+]1onc(-c2ccc(Br)cc2)c1CO [Compound 4c] showed pIC50 equal to 5.07

The compound N#Cc1c(-c2ccc(OC/C=C/CBr)cc2)no[n+]1[O-] [Compound 16] showed pIC50 equal to 6.30

###

Target: recombinant SjTGR (Schistosoma japonicum)
Experiment: Inhibition of TrxR activity of recombinant SjTGR (DTNB assay)
Assay type: biochemical
Settings: 50 nM SjTGR, 1 mM NADPH, 15 min preincubation, DTNB reduction; read-out: IC50 of SjTGR
pIC50: −log10 of the molar value.
property_label: pIC50

Check out these entries, answers already filled in.
CC(C)CCOc1ccc(-c2no[n+]([O-])c2C#N)cc1
< 4.70
N#Cc1c(-c2ccc(COc3ccc4ccccc4c3C=O)cc2)no[n+]1[O-]
< 4.70
N#Cc1c(-c2ccc(COc3ccc(C=O)cc3)cc2)no[n+]1[O-]
< 4.70

The compound `N#Cc1c(-c2ccc(CBr)cc2)no[n+]1[O-]` showed pIC50 equal to 5.01

The compound `N#Cc1c(-c2ccc(COc3ccccc3)cc2)no[n+]1[O-]` showed pIC50 equal to < 4.70

###

Test system: juvenile S. japonicum
Assay: microbe, parasite or virus in culture
Assay type: cell-based
Settings: Schistosoma japonicum, 24 h, read-out: Mortality of juvenile worms
property_label: mortality at 50 µM

Check out these entries, answers already filled in.
N#Cc1c(-c2ccc(CBr)cc2)no[n+]1[O-]
> 70%
N#Cc1c(-c2ccc(COc3ccccc3)cc2)no[n+]1[O-]
> 70%
N#Cc1c(-c2ccc(OCCBr)cc2)no[n+]1[O-]
< 30%
Cc1ccc(-c2no[n+]([O-])c2CO)cc1
> 70%
[O-][n+]1onc(-c2ccc(Br)cc2)c1CO
< 30%

Now take the following compound into account.
The compound `N#Cc1c(-c2ccc(OCC(=O)c3ccccc3)cc2)no[n+]1[O-]` showed mortality at 50 µM equal to < 30%

###

Tested on: adult S. japonicum
Assay: microbe, parasite or virus in culture
Format: cell-based
Conditions: adult worms, 50 μM, 24 h
property_label: Killing activity 24hr

N#Cc1c(-c2ccc(OCC(=O)c3ccccc3)cc2)no[n+]1[O-]
n.e.
N#Cc1c(-c2ccc(COc3cc(=O)oc4ccccc34)cc2)no[n+]1[O-]
n.e.
N#Cc1c(-c2ccc(OCCCOc3ccc(-c4no[n+]([O-])c4C#N)cc3)cc2)no[n+]1[O-]
66.7%D
[O-][n+]1onc(-c2ccc(Br)cc2)c1CO
n.e.

###

# killing at 25 µM listing for each entry below
System: adult S. japonicum
Assay: microbe, parasite or virus in culture
Assay type: cell-based
Details: Schistosoma japonicum; adult worms, 25 μM, 48 h; read-out: Killing activity 48hr
The reply should contain only the number, in %.

Check out these entries, answers already filled in.
N#Cc1c(-c2ccc(Br)cc2)no[n+]1[O-]
100
COc1ccc(-c2no[n+]([O-])c2CO)cc1
100

Now take the following compound into account.
The compound `N#Cc1c(-c2ccc(COc3ccc(C=O)cc3)cc2)no[n+]1[O-]` showed killing at 25 µM equal to 100

###

Test system: juvenile S. japonicum
Assay: microbe, parasite or virus in culture
Type: cell-based
Settings: Schistosoma japonicum; juvenile worms, 2 μM, 48 h; read-out: Killing activity 48hr
# killing at 2 µM listing for each entry below
The reply should contain only the number, in %.

The compound [O-][n+]1onc(-c2ccc(Br)cc2)c1CO [Compound 4c] showed killing at 2 µM equal to 20

The compound N#Cc1c(-c2ccc(COc3ccc4ccccc4c3C=O)cc2)no[n+]1[O-] [Compound 27] showed killing at 2 µM equal to 9.1

The compound COc1ccc(-c2no[n+]([O-])c2C#N)cc1 [Compound 7a] showed killing at 2 µM equal to 29.2

The compound N#Cc1c(-c2ccc(Br)cc2)no[n+]1[O-] [Compound 7c] showed killing at 2 µM equal to 100

The compound C[C@@H]1CC[C@H]2[C@@H](C)C(=O)O[C@@H]3O[C@@]4(C)CC[C@@H]1[C@]32OO4 [AS, artemisinin, reference compound] showed killing at 2 µM equal to 24.3

The compound N#Cc1c(-c2ccc(CBr)cc2)no[n+]1[O-] [Compound 22] showed killing at 2 µM equal to 30.1

The compound N#Cc1c(-c2ccc(COc3ccccc3)cc2)no[n+]1[O-] [Compound 23] showed killing at 2 µM equal to 16.1

The compound N#Cc1c(-c2ccc(O)cc2)no[n+]1[O-] [Compound 8] showed killing at 2 µM equal to 18

###

Assay: Cytotoxicity assay on Hela cells (MTT)
Format: cell-based
Settings: human
property_label: viability at 72 h, 80 µM

Check out these entries, answers already filled in.
Cc1ccc(-c2no[n+]([O-])c2CO)cc1
96%
COc1ccc(-c2no[n+]([O-])c2CO)cc1
91%

The compound `N#Cc1c(-c2ccc(OC/C=C/CBr)cc2)no[n+]1[O-]` showed viability at 72 h, 80 µM equal to 89%

###

System: adult S. japonicum in mice
Experiment: Treatment of infected mice at adult worm stage
Format: in vivo, Schistosoma japonicum (ICR mice)
Details: mice, 10 mg/kg i.p. daily for 5 days from day 35 post-infection, sacrificed day 42
Protocol: The abdominal skin of each mouse (ICR, female, 22–24 g) was exposed to 20 S. japonica cercariae (as described above). The mice were intraperitoneally injected with 10 mg/kg oxadiazole-2-oxides daily for 5 days, beginning either 7 or 35 days post-infection. Control mice were treated with 10 mg/kg of the carrier medium. […] The mouse livers were digested overnight with 5 % potassium hydroxyl solution at 37 °C and the eggs in the liver tissue were counted under an inverted phase contrast microscope. […]
# Number of worms (Mean ± SD) listing for each entry below

C#CCOc1ccc(-c2no[n+]([O-])c2C#N)cc1
4.7 ± 1.1 (P > 0.05^**)
N#Cc1c(-c2ccc(Br)cc2)no[n+]1[O-]
12.0 ± 3.9 (P < 0.05^**)
COc1ccc(-c2no[n+]([O-])c2CO)cc1
4.0 ± 2.5 (P > 0.05^**)
Cc1ccc(-c2no[n+]([O-])c2CO)cc1
9.0 ± 3.8 (P < 0.05^**)
O=C(C1CCCCC1)N1CC(=O)N2CCc3ccccc3C2C1 (stereo not shown) [PZQ, praziquantel, reference compound]
3.3 ± 1.7

Test item `N#Cc1c(-c2ccc(OC/C=C/CBr)cc2)no[n+]1[O-]` ; adult S. japonicum in mice; reported Number of worms (Mean ± SD) was 3.7 ± 1.4 (P > 0.05^**)

Test item `N#Cc1c(-c2ccc(OCCCBr)cc2)no[n+]1[O-]` ; adult S. japonicum in mice; reported Number of worms (Mean ± SD) was 8.6 ± 2.4 (P < 0.05^**)
